Attribution: the supplement of paper PMC7877785

Assay: self-splicing fitness, log relative to wild type (ln ratio); higher = more splicing; Tetrahymena group I intron in knt gene, E. coli kanamycin selection, DiMSum; sequences stand for … in CUCUCU…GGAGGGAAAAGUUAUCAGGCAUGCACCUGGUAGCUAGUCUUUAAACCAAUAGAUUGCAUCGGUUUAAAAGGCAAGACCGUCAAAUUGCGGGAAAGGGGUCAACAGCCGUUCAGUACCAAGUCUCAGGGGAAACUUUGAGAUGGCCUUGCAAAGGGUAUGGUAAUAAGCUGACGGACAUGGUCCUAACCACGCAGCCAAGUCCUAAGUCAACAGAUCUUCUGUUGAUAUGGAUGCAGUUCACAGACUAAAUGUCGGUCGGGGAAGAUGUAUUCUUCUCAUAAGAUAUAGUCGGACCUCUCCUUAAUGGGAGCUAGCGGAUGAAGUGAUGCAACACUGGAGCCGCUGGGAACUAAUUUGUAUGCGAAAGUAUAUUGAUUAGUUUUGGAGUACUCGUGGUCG;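 note: selection with 25 µg/mL kanamycin versus none on LB agar overnight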
Condition parameters: 37 °C
Given measured self-splicing fitness (ln), output 1 if it is greater than or equal to -0.3 and -1 if not.

Solved entries (count: 5):
# Chain, Label class
data = [
    ("CUGAAGCAAUAUUACGAGUG", 1),
    ("UGUCAGCAAUAUUACGUUAU", -1),
    ("GGAAAGCAAUAUUACGUCGU", 1),
    ("AUAUAGCAAUAUUACGAAGG", -1),
    ("UGUCAGCAAUAUUACGCCUG", 1),
]

### Prompt Would you say CACCAGCAAUAUUACGGAUA shows self-splicing fitness (ln) at minimum -0.3?
### Response -1

====

Assay: self-splicing fitness, log relative to wild type (ln ratio); higher = more splicing; Tetrahymena group I intron in knt gene, E. coli kanamycin selection, DiMSum; sequences stand for … in CUCUCU…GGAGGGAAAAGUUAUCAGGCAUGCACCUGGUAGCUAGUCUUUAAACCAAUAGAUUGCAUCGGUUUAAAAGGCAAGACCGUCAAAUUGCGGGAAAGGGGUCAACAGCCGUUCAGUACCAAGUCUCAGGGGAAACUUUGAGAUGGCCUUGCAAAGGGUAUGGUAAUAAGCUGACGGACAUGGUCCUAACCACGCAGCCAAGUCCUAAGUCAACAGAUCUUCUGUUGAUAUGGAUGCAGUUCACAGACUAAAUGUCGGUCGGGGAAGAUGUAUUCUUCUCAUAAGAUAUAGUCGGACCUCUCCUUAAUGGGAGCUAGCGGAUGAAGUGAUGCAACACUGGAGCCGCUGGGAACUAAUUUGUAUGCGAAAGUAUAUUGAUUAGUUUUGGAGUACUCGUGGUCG
Condition parameters: 37 °C
I'd appreciate it if you could supply self-splicing fitness (ln) values for the items below.
One number for each entry.

Hey, quick one: what's self-splicing fitness (ln) for each of these?
1. UCACAGCAAUAUUACGUCCC
2. GACCAGCAAUAUUACGCAGA
3. GCUAAGCAAUAUUACGGUUC

### Response
[-2.01, -0.378, -0.788]

Hey, quick one: what's self-splicing fitness (ln) for each of these?
1. AGUCAGCAAUAUUACGGUCG
2. CAAGAGCAAUAUUACGUUUC
3. AAAGAGCAAUAUUACGUAUG
4. CGCCAGCAAUAUUACGUUAC

### Response
[0.0344, -2.01, -2.06, -3.49]

Hey, quick one: what's self-splicing fitness (ln) for each of these?
1. GCCGAGCAAUAUUACGGAGU
2. AUCGAGCAAUAUUACGGGUA
3. CCGGAGCAAUAUUACGGAAA
4. UAUCAGCAAUAUUACGGGAG

### Response
-1.56
-2.15
-2.41
-1.17

Hey, quick one: what's self-splicing fitness (ln) for each of these?
1. CCUUAGCAAUAUUACGAAGC
2. CAACAGCAAUAUUACGGCGG

### Response
[-1.56, 0.0944]

====

Assay: self-splicing fitness, log relative to wild type (ln ratio); higher = more splicing; Tetrahymena group I intron in knt gene, E. coli kanamycin selection, DiMSum; sequences stand for … in CUCUCU…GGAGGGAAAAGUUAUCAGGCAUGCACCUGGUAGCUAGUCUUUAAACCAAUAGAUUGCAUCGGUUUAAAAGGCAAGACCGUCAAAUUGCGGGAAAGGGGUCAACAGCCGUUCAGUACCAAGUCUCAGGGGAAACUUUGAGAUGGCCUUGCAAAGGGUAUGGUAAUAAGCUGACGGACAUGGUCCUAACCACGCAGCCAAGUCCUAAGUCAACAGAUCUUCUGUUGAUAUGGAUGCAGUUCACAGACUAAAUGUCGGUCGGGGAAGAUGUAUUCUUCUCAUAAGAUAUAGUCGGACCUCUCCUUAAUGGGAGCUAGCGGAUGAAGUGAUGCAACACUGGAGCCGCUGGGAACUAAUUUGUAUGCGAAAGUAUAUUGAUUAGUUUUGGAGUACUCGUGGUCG
Condition parameters: 30 °C
Given measured self-splicing fitness (ln), output T if it is greater than or equal to -0.9 and F if not.

Solved entries (count: 5):
# Chain, Label class
rows = [
    ("AUGAAGCAAUAUUACGGCCG", "T"),
    ("CAUCAGCAAUAUUACGAGAA", "F"),
    ("UGCAAGCAAUAUUACGGUGA", "T"),
    ("UUGGAGCAAUAUUACGGUUC", "F"),
    ("GCUAAGCAAUAUUACGGGAA", "F"),
]

We next turn to a different sequence, shown below.
### Prompt Would you say UGAAAGCAAUAUUACGAGGC shows self-splicing fitness (ln) at minimum -0.9?
### Response F

====

Assay: self-splicing fitness, log relative to wild type (ln ratio); higher = more splicing; Tetrahymena group I intron in knt gene, E. coli kanamycin selection, DiMSum; sequences stand for … in CUCUCU…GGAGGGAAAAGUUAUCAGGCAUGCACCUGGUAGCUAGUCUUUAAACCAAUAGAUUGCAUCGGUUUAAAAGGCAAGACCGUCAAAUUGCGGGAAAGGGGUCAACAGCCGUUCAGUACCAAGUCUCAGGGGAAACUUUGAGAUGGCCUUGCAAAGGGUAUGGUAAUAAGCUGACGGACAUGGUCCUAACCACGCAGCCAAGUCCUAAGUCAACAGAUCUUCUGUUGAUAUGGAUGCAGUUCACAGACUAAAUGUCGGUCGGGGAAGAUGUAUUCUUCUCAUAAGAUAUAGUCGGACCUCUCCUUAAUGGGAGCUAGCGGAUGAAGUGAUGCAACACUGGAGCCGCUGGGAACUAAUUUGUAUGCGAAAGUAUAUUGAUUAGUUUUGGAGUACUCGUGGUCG
Condition parameters: 30 °C
Readout type: self-splicing fitness (ln)
One number for each entry.

Field: example entries. Status: answers known.
# Chain, Number
measured = [
    ("ACAAAGCAAUAUUACGCACG", -1.96),
    ("GUUCAGCAAUAUUACGAACG", -2.55),
    ("UUGCAGCAAUAUUACGGUGU", -4.16),
]

Hey, quick one: what's self-splicing fitness (ln) for each of these?
1. GAAAAGCAAUAUUACGUGGA
2. GCGUAGCAAUAUUACGAUCG

### Response
[-2.96, -1.34]

====

Assay: self-splicing fitness, log relative to wild type (ln ratio); higher = more splicing; Tetrahymena group I intron in knt gene, E. coli kanamycin selection, DiMSum; sequences stand for … in CUCUCU…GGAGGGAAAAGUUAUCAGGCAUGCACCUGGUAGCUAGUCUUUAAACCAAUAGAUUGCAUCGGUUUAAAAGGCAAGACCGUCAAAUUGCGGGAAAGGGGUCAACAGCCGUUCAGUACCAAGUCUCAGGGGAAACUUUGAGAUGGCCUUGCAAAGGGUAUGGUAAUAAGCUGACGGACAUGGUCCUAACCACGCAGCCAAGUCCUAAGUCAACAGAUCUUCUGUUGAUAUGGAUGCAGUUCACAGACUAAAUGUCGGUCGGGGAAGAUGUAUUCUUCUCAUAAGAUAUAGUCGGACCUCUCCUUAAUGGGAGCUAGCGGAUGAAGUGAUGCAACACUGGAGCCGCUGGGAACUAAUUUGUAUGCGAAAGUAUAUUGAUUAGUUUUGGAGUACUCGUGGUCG
Condition parameters: 37 °C
I'd appreciate it if you could supply self-splicing fitness (ln) values for the items below.
One number for each entry.

Field: example entries. Status: answers known.
# Chain, Number
records = [
    ("CCAUAGCAAUAUUACGCAUU", -2.84),
    ("CUCUAGCAAUAUUACGGAAA", -3.54),
    ("AACGAGCAAUAUUACGUGUU", -3.62),
]

Please examine the following record next.
Sure, the documented self-splicing fitness (ln) for AUAUAGCAAUAUUACGUUUU is -1.82
